# measuredOn: BRD4(1), first bromodomain of BRD4 (Homo sapiens, UniProt O60885)
# Construct: BRD4(1) for the first bromodomain of BRD4; purchased DiscoveRx Corporation (assay service); host or cells: T7 phage grown in an E. coli host derived from the BL21 strain
# test: Bromoscan assay BRD4(1) (DiscoveRx)
# Assay type: binding
# testConditions: ratio of Kd BRD4_2 to BRD4_1; selectivity for BRD4_1 over BRD4_2
readout: BromoScan BRD4_2/1

INSERT INTO measurements (compound, obsvalue) VALUES
  ('Cc1cc(O)nc2c(C)cc(NC(=O)c3cc(S(=O)(=O)N(C)C)ccc3N3CCCC3)cc12 [Compound-107]', 7.8),
  ('Cc1cc(O)nc2ccc(NC(=O)c3cc(CN4CCN(C)CC4)ccc3N3CCCC3)cc12 [compound 1]', 25.4),
  ('Cc1cc(O)nc2ccc(NC(=O)c3cc(C4(N5CCOCC5)CC4)ccc3N3CCCC3)cc12 [Compound-113]', 11.9),
  ('Cc1cc(O)nc2ccc(NC(=O)c3cc(S(=O)(=O)N4CCCCC4)ccc3N3CCOCC3)cc12 [Compound-67]', 190.9);

----------
# measuredOn: BRD4 protein (Homo sapiens)
# test: FRET assay, half maximal inhibitory concentration (IC50)
# Assay type: binding
# testConditions: BRD4 protein 50 nM, Biotin-H4KAc4 peptide 12.5 nM; List of Classification
readout: IC50

INSERT INTO assay_data (molecule, readout, obsvalue) VALUES
  ('Cc1cc(=O)[nH]c2ccc(NC(=O)c3cc(S(=O)(=O)N(C)C)ccc3N3CC[C@@H](F)C3)cc12 [Compound-172]', 'IC50', '< 200 nM'),
  ('Cc1cc(O)nc2ccc(NC(=O)c3cc(CN4CCOCC4)ccc3N3CCCC3CN(C)C)cc12 (stereo not drawn) [Compound-32]', 'IC50', '< 200 nM'),
  ('Cc1cc(O)nc2ccc(NC(=O)c3cc(CN4CCOCC4)ccc3N3CCCC3CO)cc12 (stereo not drawn) [Compound-30]', 'IC50', '< 200 nM'),
  ('Cc1cc(O)nc2ccc(NC(=O)c3cc(C#N)ncc3N3CCCC3CN(C)C)cc12 (stereo not drawn) [Compound-211]', 'IC50', '200 to 500 nM'),
  ('Cc1cc(O)nc2c(C)cc(NC(=O)c3cc(-c4ccoc4)ccc3N3CCOCC3)cc12 [Compound-157]', 'IC50', '< 200 nM'),
  ('Cc1cc(O)nc2ccc(NC(=O)c3cc(OC(F)(F)F)ccc3N3CCCC3CN(C)C)cc12 (stereo not drawn) [Compound-51]', 'IC50', '< 200 nM'),
  ('Cc1cc(O)nc2ccc(NC(=O)c3cc(-c4cnn(C)c4)ccc3N3CCOCC3)cc12 [Compound-166]', 'IC50', '< 200 nM'),
  ('Cc1cc(O)nc2ccc(NC(=O)c3cc(C(C)O)ncc3N3CCC(F)C3)cc12 (stereo not drawn) [Compound-210]', 'IC50', '< 200 nM'),
  ('Cc1cc(O)nc2ccc(NC(=O)c3cc(C(C)O)ncc3N3CCCC3)cc12 (stereo not drawn) [Compound-43]', 'IC50', '< 200 nM'),
  ('Cc1cc(O)nc2ccc(NC(=O)c3cccnc3N3CCOCC3C)cc12 (stereo not drawn) [Compound-120]', 'IC50', '< 200 nM'),
  ('Cc1cc(O)nc2ccc(NC(=O)c3cc(S(=O)(=O)N(C)C)ccc3N3CCC(O)C3)cc12 (stereo not drawn) [Compound-17]', 'IC50', '< 200 nM'),
  ('COCc1ccc(N2CCCC2)c(C(=O)Nc2ccc3nc(O)cc(C)c3c2)c1 [Compound-13]', 'IC50', '< 200 nM'),
  ('Cc1cc(O)nc2ccc(NC(=O)c3cc(C(=O)O)ccc3N3CCOCC3)cc12 [Compound-182]', 'IC50', '< 200 nM'),
  ('COCc1ccc(N2CCCC2CN(C)C)c(C(=O)Nc2ccc3nc(O)cc(C)c3c2)c1 (stereo not drawn) [Compound-48]', 'IC50', '200 to 500 nM'),
  ('Cc1cc(O)nc2ccc(NC(=O)c3cc(C(N)=O)ncc3N3CCCC3)cc12 [Compound-202]', 'IC50', '< 200 nM'),
  ('COCC1CCCN1c1ccc(CN2CCOCC2)cc1C(=O)Nc1ccc2nc(O)cc(C)c2c1 (stereo not drawn) [Compound-26]', 'IC50', '< 200 nM'),
  ('CC(C)c1cc(O)nc2ccc(NC(=O)c3cc(S(=O)(=O)N(C)C)ccc3N3CCCC3)cc12 [Compound-165]', 'IC50', '< 200 nM'),
  ('Cc1cc(O)nc2ccc(NC(=O)c3cc(-c4nnn[nH]4)ccc3N3CCOCC3)cc12 [Compound-181]', 'IC50', '< 200 nM'),
  ('Cc1cc(=O)[nH]c2ccc(NC(=O)c3cc(S(=O)(=O)N4CCOCC4)ccc3N3CCCC3)nc12 [Compound-94]', 'IC50', '> 10000 nM'),
  ('COc1cc(NC(=O)c2cc(-c3ccoc3)cnc2N2CCOCC2)cc2c(C)cc(O)nc12 [Compound-189]', 'IC50', '< 200 nM'),
  ('CN1Cc2cc(NC(=O)c3cccnc3N3CCOCC3)ccc2NC1=O [Compound-130]', 'IC50', '1000 to 10000 nM'),
  ('CC(=O)c1cc(C(=O)Nc2ccc3nc(O)cc(C)c3c2)c(N2CCC(F)C2)cn1 (stereo not drawn) [Compound-209]', 'IC50', '< 200 nM'),
  ('Cc1cc(O)nc2ccc(NC(=O)c3cc(S(=O)(=O)N4CCOCC4)ccc3N3CCOCC3)cc12 [Compound-68]', 'IC50', '< 200 nM'),
  ('Cc1noc(C)c1-c1ccc(N2CCOCC2)c(C(=O)Nc2ccc3nc(O)cc(C)c3c2)c1 [Compound-152]', 'IC50', '< 200 nM'),
  ('Cc1cc(O)nc2ccc(NC(=O)c3cc(CN4CCN(C)CC4)ccc3N3CCCC3)cc12 [compound 1]', 'IC50', '< 200 nM'),
  ('COc1cc2nc(O)cc(C)c2cc1NC(=O)c1cc(-c2ccoc2)ccc1N1CCOCC1 [Compound-160]', 'IC50', '500 to 1000 nM'),
  ('Cc1cc(O)nc2ccc(NC(=O)c3cc(C#N)ncc3N3CCC(F)C3)cc12 (stereo not drawn) [Compound-115]', 'IC50', '< 200 nM'),
  ('Cc1cc(O)nc2ccc(NC(=O)c3cc(C#N)cnc3N3CCOCC3)cc12 [Compound-183]', 'IC50', '500 to 1000 nM'),
  ('O=C(Nc1ccc2nc(O)cc(C(F)(F)F)c2c1)c1cc(CN2CCOCC2)ccc1N1CCCC1 [Compound-28]', 'IC50', '500 to 1000 nM'),
  ('Cc1cc(O)nc2ccc(NC(=O)c3ccc(C(F)(F)F)nc3N3CCCC3)cc12 [Compound-134]', 'IC50', '< 200 nM'),
  ('COc1cc(O)nc2ccc(NC(=O)c3cccnc3N3CCOCC3)cc12 [Compound-149]', 'IC50', '500 to 1000 nM'),
  ('Cc1cc(O)nc2ccc(NC(=O)c3cc(C(=O)N(C)C)ccc3N3CCOCC3)cc12 [Compound-9]', 'IC50', '< 200 nM'),
  ('Cc1cc(O)nc2ccc(NC(=O)c3cc(S(=O)(=O)N4CCN(C)CC4)ccc3N3CCOCC3)cc12 [Compound-5]', 'IC50', '< 200 nM');
